- Study target: 11-beta-hydroxysteroid dehydrogenase type 2 (Homo sapiens, UniProt P80365)
- Sequence (P80365 whole entry): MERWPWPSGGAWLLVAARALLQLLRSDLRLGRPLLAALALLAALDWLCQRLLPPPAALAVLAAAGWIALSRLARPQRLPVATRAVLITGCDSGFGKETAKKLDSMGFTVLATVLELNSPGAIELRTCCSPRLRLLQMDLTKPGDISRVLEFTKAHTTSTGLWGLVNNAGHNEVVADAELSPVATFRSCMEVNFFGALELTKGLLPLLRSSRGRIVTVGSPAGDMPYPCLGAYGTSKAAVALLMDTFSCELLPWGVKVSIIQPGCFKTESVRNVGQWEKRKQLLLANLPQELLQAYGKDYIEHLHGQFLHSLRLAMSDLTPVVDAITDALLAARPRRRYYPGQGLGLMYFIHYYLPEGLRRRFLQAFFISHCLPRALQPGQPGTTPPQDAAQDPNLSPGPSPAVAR
- Test protocol: Inhibition of human 11beta-HSD2 expressed in HEK293 cells assessed as conversion of [1,2,6,7-[3H]cortisol to cortisone after 10 mins by scintillation counting

{"Smiles data": "CC1(C)[C@@H](Oc2noc(=O)[nH]2)CC[C@]2(C)[C@H]3C(=O)C=C4[C@@H]5C[C@@](C)(NC(N)=O)CC[C@]5(C)CC[C@@]4(C)[C@]3(C)CC[C@@H]12", "IC50": "> 4 µM"}

---

- Study target: 11-beta-hydroxysteroid dehydrogenase 1 (Homo sapiens)
- Sequence (P28845 whole entry, looked up): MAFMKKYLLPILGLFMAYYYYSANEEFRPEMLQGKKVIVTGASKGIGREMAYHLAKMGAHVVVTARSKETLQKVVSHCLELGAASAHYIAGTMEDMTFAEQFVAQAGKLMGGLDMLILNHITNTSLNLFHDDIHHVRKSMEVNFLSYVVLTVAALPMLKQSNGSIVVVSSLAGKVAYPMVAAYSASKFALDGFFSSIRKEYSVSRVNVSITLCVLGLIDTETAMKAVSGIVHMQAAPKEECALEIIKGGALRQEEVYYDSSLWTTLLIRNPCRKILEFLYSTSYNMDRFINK
- Test parameters: HEK293, at 1000 nM
- Description: Inhibition of human recombinant 11beta-HSD1 expressed in HEK293 cells assessed as residual conversion of [1,2-[3H]cortisone to cortisol at 1000 nM after 10 mins by scintillation counting
Reported residual activity values for a set of molecules
Readout kind: residual activity (%)

{"Smiles data": "CC1(C)[C@@H](O)CC[C@]2(C)[C@H]3C(=O)C=C4[C@@H]5C[C@@](C)(C(=O)O)CC[C@]5(C)CC[C@@]4(C)[C@]3(C)CC[C@@H]12", "Result number": 16}
{"Smiles data": "CC1(C)NC(=O)CC[C@]2(C)[C@H]3C(=O)C=C4[C@@H]5C[C@@](C)(C(=O)O)CC[C@]5(C)CC[C@@]4(C)[C@]3(C)CC[C@@H]12", "Result number": 43}
{"Smiles data": "CC(=O)N[C@H]1CC[C@]2(C)[C@H]3C(=O)C=C4[C@@H]5C[C@@](C)(C(=O)O)CC[C@]5(C)CC[C@@]4(C)[C@]3(C)CC[C@H]2C1(C)C", "Result number": 36}
{"Smiles data": "CC1(C)[C@@H](OC(=O)CCC(=O)O)CC[C@]2(C)[C@H]3C(=O)C=C4[C@@H]5C[C@@](C)(C(=O)O)CC[C@]5(C)CC[C@@]4(C)[C@]3(C)CC[C@@H]12", "Result number": 12}
{"Smiles data": "CC1(C)C(=O)CC[C@]2(C)[C@H]3C(=O)C=C4[C@@H]5C[C@@](C)(C(=O)O)CC[C@]5(C)CC[C@@]4(C)[C@]3(C)CC[C@@H]12", "Result number": 36}
{"Smiles data": "CC(=O)O[C@H]1CC[C@]2(C)[C@H]3C(=O)C=C4[C@@H]5C[C@@](C)(C(=O)O)CC[C@]5(C)CC[C@@]4(C)[C@]3(C)CC[C@H]2C1(C)C", "Result number": 12}
